# Tested on: CP265
# protocol.summary: qHTS profiling for inhibitors of Plasmodium falciparum proliferation (AID 504749); note: nearly all actives have a fitted effect of over 60% in size
# experimental.parameters: P. falciparum in erythrocytes, SYBR Green DNA, 72 h; series mostly up to 28.7 µM
Records with an inconclusive call do not appear. Calls of active or inactive are those of the source. Calls come from the whole dose curve; as a rule, active = well fitted inhibition curve with a large enough effect; inconclusive = small, poorly fitted or top-dose-only effect; inactive = flat fitted curve, though single readings scatter.
Outcome codes: active, inactive

[[record]]
molecule = "Nc1ccc(C(=O)Nc2ccccc2N)cc1"
category = "inactive"

[[record]]
molecule = "CCN(CC)C(=O)N1CCN(C)CC1"
category = "inactive"

[[record]]
molecule = "CCN1CCC[C@H]1CNC(=O)c1c(OC)ccc(Br)c1OC"
category = "inactive"

[[record]]
molecule = "COc1cccc(CCc2ccccc2OCC(CN(C)C)OC(=O)CCC(=O)O)c1 (stereo not given)"
category = "active"

[[record]]
molecule = "C[C@@H](CN(C)C)CN1c2ccccc2Sc2ccccc21"
category = "inactive"

[[record]]
molecule = "C[C@H]1C[C@H]2[C@@H]3CCC4=CC(=O)C=C[C@]4(C)[C@@]3(Cl)[C@@H](O)C[C@]2(C)[C@@]1(O)C(=O)CO"
category = "inactive"

[[record]]
molecule = "Cc1c(F)c(N2CCNC(C)C2)cc2c1c(=O)c(C(=O)O)cn2C1CC1 (stereo not given)"
category = "inactive"

[[record]]
molecule = "CCOc1ccc(NC(=O)CC(C)O)cc1 (stereo not given)"
category = "inactive"

[[record]]
molecule = "C[N+]1(CCCCC[N+]2(C)CCCC2)CCCC1"
category = "inactive"

[[record]]
molecule = "CC(=O)Nc1c(I)cc(I)c(C(=O)O)c1I"
category = "inactive"

[[record]]
molecule = "COc1cc(NS(C)(=O)=O)ccc1Nc1c2ccccc2nc2ccccc12"
category = "active"

[[record]]
molecule = "C[C@@H]1C[C@H]2[C@@H]3CCC4=CC(=O)C=C[C@]4(C)[C@@]3(F)[C@@H](O)C[C@]2(C)[C@H]1C(=O)CO"
category = "inactive"

[[record]]
molecule = "COC(=O)[C@@H]1CC2=CC(=O)CC[C@]2(C)[C@@]23O[C@@H]2C[C@@]2(C)[C@@H](CC[C@@]24CCC(=O)O4)[C@H]13"
category = "inactive"

[[record]]
molecule = "C[C@]12CCC(=O)C=C1CC[C@H]1[C@@H]3CC[C@](O)(C(=O)CO)[C@@]3(C)C[C@H](O)[C@@]12F"
category = "inactive"

[[record]]
molecule = "N[C@H](Cc1c[nH]c2ccccc12)C(=O)O"
category = "inactive"

[[record]]
molecule = "COc1cc(OC)cc(OC)c1"
category = "inactive"

[[record]]
molecule = "CC(C)COC(=O)OCN1C(=O)CN(CCN2CC(=O)N(COC(=O)OCC(C)C)C(=O)C2)CC1=O"
category = "inactive"

[[record]]
molecule = "Cc1c(N(C)CS(=O)(=O)O)c(=O)n(-c2ccccc2)n1C"
category = "inactive"

[[record]]
molecule = "COc1ccc(CCN2CCC(Nc3nc4ccccc4n3Cc3ccc(F)cc3)CC2)cc1"
category = "active"

[[record]]
molecule = "CCn1cc(C(=O)O)c(=O)c2cnc(N3CCCC3)nc21"
category = "inactive"

[[record]]
molecule = "CC[N+](CC)(CCNC(=O)C(=O)NCC[N+](CC)(CC)Cc1ccccc1Cl)Cc1ccccc1Cl"
category = "active"

[[record]]
molecule = "O=C(Nc1ccc(Cl)c(Cl)c1)C1CC1"
category = "inactive"

[[record]]
molecule = "CCN1CCN(c2cc3c(cc2F)c(=O)c(C(=O)O)cn3C2CC2)CC1"
category = "inactive"

[[record]]
molecule = "CCN(CC)C(=O)/C(C#N)=C/c1cc(O)c(O)c([N+](=O)[O-])c1"
category = "inactive"

[[record]]
molecule = "CCN(CC)CCOC(=O)C(c1ccccc1)C1CCCCC1 (stereo not given)"
category = "inactive"

